These measurements were taken from the supplement of paper PMC13380429.

# Test system: Caco-2
# protocol_details: cell viability relative to DMSO; higher = less toxic
# settings: 72 h; 10 nM
Consider the following molecules; for each one, report its cell viability.
State just the number; it will be interpreted in %.

Prompt line: Item: "O=C(O)c1nc(=O)[nH]c(=O)[nH]1" Test system: Caco-2 Read-out: cell viability Value: ?
Response line: 76.3

Prompt line: Can you handle "OC[C@H]1O[C@H](O[C@H]2O[C@H](CO)[C@@H](O)[C@H](O)[C@H]2O)[C@H](O)[C@@H](O)[C@@H]1O" next?
Response line: 112

Prompt line: Can you handle "C#Cc1cncc([C@@H]2CCCN2C)c1" next?
Response line: 92.9

Prompt line: Can you handle "CCOc1cc(C(=O)N2CCC(N3CCN(C)CC3)CC2)ccc1Nc1ncc2c(n1)N(C1CCCC1)c1ccccc1C(=O)N2C" next?
Response line: 104

Prompt line: Can you handle "CN1CC(=O)NC1=N" next?
Response line: 96.6

Prompt line: Can you handle CC(=O)OCC(=O)[C@H]1CC[C@H]2[C@@H]3CC[C@H]4C[C@H](O)CC[C@]4(C)[C@H]3C(=O)C[C@]12C [alfadolone-acetate] next?
Response line: 102

Prompt line: Can you handle "C[C@H](N)Cc1cccc(O)c1" next?
Response line: 104

Prompt line: Can you handle "CCCN(CCC)S(=O)(=O)c1ccc(C(=O)O)cc1" next?
Response line: 97.6

Prompt line: Can you handle CC(C(=O)O)c1ccc2c(c1)Cc1ccccc1-2 (centres undefined) next?
Response line: 97.9

* * *

# Tested on: Calu-3
# protocol_details: cell viability relative to DMSO; higher = less toxic
# settings: 72 h; 1 nM
Consider the following compounds; for each one, report its cell viability.
State just the number; it will be interpreted in %.

Prompt line: Look up cell viability: CCN[C@@H](C)Cc1cccc(C(F)(F)F)c1 [dexfenfluramine]
Response line: 97.4

Prompt line: Can you handle Cc1cc(C)c(/C=C2\C(=O)Nc3ccccc32)[nH]1 [semaxanib] next?
Response line: 93.2

Prompt line: Can you handle "Cc1c(N2C(=O)[C@@H]3[C@H](O)CCN3C2=O)ccc(C#N)c1Cl" next?
Response line: 106

Prompt line: Can you handle COC(=O)C[C@H]1CC(c2ccc(O)cc2)=NO1 [ISO-1] next?
Response line: 100

Prompt line: Can you handle C[C@H](Nc1ncnc2[nH]cnc12)c1cc2ccc(F)cc2nc1-c1ccccn1 [AMG319] next?
Response line: 103

Prompt line: Can you handle CCCCc1ccc(C(N)=O)nc1 [bupicomide] next?
Response line: 97.9

Prompt line: Can you handle O[C@H]1[C@H](O)[C@@H](O)CN2CC[C@H](O)[C@H]12 [castanospermine] next?
Response line: 102

Prompt line: Can you handle Cc1c(-c2ccnn2C)cc(C(=O)NCc2ccc(S(C)(=O)=O)cn2)c(=O)n1-c1cccc(C(F)(F)F)c1 [AZD9668] next?
Response line: 94.5

Prompt line: Can you handle CCC(O)(CC(N)=O)c1ccccc1 (centres undefined) [3-hydroxy-3-phenylpentanamide] next?
Response line: 98.2

* * *

Consider the following compounds; for each one, report its cell viability.
# Test system: HepG2
# protocol_details: cell viability relative to DMSO; higher = less toxic
# settings: 72 h; 1 nM
State just the number; it will be interpreted in %.

Prompt line: Look up cell viability: CCOC(=O)[C@]12CC1/C(=N\O)c1ccccc1O2 (stereo partly specified) [CPCCOEt]
Response line: 91.7

Prompt line: Can you handle CSc1nc(-c2ccc(F)cc2)c(-c2ccnc(N[C@@H](C)c3ccccc3)c2)[nH]1 [ML3403] next?
Response line: 100

Prompt line: Can you handle NC(=O)CCCCC1CCSS1 (stereo unspecified) [lipoamide] next?
Response line: 88.4

Prompt line: Can you handle CCCNS(=O)(=O)Nc1ncnc(OCCOc2ncc(Br)cn2)c1-c1ccc(Br)cc1 [macitentan] next?
Response line: 99.5

Prompt line: Can you handle C=Cc1c(C)c2cc3nc(c(CC(=O)O)c4[n-]c(cc5nc(cc1[n-]2)C(C)=C5CC)c(C)c4C(=O)O)[C@@H](CCC(=O)O)[C@@H]3C.[Cu+2] [chlorophyllin-copper] next?
Response line: 89.6

Prompt line: Can you handle Cn1ncnc1[C@H]1c2n[nH]c(=O)c3cc(F)cc(c23)N[C@@H]1c1ccc(F)cc1 [talazoparib] next?
Response line: 98.8

Prompt line: Can you handle CC(=O)[C@H]1CC[C@H]2[C@@H]3CC[C@H]4C[C@H](O)CC[C@]4(C)[C@H]3CC[C@]12C [allopregnanolone] next?
Response line: 98.9

Prompt line: Can you handle Cc1cc(C)c(/C=C2\C(=O)Nc3ccccc32)[nH]1 [semaxanib] next?
Response line: 99

Prompt line: Can you handle "Nc1nccc(-c2c(-c3ccc(F)cc3)ncn2C2CCCCC2)n1" next?
Response line: 97.8

Prompt line: Can you handle Cc1onc(-c2ccccc2)c1C(=O)N[C@@H]1C(=O)N2[C@@H]1SC(C)(C)[C@@H]2C(=O)O [oxacillin] next?
Response line: 89.9

Prompt line: Can you handle CN1C(=O)C[C@@H](C(=O)N[C@@H](Cc2c[nH]cn2)C(=O)N2CCC[C@H]2C(N)=O)NC1=O [taltirelin] next?
Response line: 106

Prompt line: Can you handle C#C[C@]1(OC(C)=O)CC[C@H]2[C@@H]3CCC4=CC(=NO)CC[C@@H]4[C@H]3CC[C@@]21CC (mixture of isomers) [norgestimate] next?
Response line: 108

Prompt line: Can you handle CN(C)Cc1ccc(S(=O)(=O)n2ccc(/C=C/C(=O)NO)c2)cc1 [resminostat] next?
Response line: 110

Prompt line: Can you handle O=C(O)Cc1ccc(CCNS(=O)(=O)c2ccc(Cl)cc2)cc1 [daltroban] next?
Response line: 95

Prompt line: Can you handle CO/N=C(\C(=O)N[C@@H]1C(=O)N2C(C(=O)O)=C(CSc3nc(=O)c(O)nn3C)CS[C@H]12)c1csc(N)n1 [ceftriaxone] next?
Response line: 93

Prompt line: Can you handle Oc1cc(O)c2c(c1)O[C@H](c1ccc(O)c(O)c1)[C@@H](O)C2 [cianidanol] next?
Response line: 100

Prompt line: Can you handle CCOC(=O)[C@@H](N)CCC(=O)N[C@@H](CSCc1ccccc1)C(=O)N[C@@H](C(=O)OCC)c1ccccc1 [ezatiostat] next?
Response line: 101

Prompt line: Can you handle C[C@H](N)Cc1cccc(O)c1 [gepefrine] next?
Response line: 103

Prompt line: Can you handle "Cc1c(N2C(=O)[C@@H]3[C@H](O)CCN3C2=O)ccc(C#N)c1Cl" next?
Response line: 97.7

Prompt line: Can you handle N=C(N)NC(=N)Nc1cccc(Cl)c1 [m-chlorophenylbiguanide] next?
Response line: 112

Prompt line: Can you handle CCOc1ccc(Cc2nccc3cc(OCC)c(OCC)cc23)cc1OCC [ethaverine] next?
Response line: 86.2

Prompt line: Can you handle CN(C)C/C=C/C(=O)Nc1cc2c(Nc3ccc(F)c(Cl)c3)ncnc2cc1O[C@H]1CCOC1 [afatinib] next?
Response line: 117

Prompt line: Can you handle CCCN(CCC)S(=O)(=O)c1ccc(C(=O)O)cc1 [probenecid] next?
Response line: 105

Prompt line: Can you handle CC(=O)Oc1cc2c(s1)CCN(C(C(=O)C1CC1)c1ccccc1F)C2 (stereo unspecified) [prasugrel] next?
Response line: 105

Prompt line: Can you handle Cc1ccc(NC(=O)c2cccc(C(C)(C)C#N)c2)cc1Nc1ccc2ncn(C)c(=O)c2c1 [AZ-628] next?
Response line: 97.5

Prompt line: Can you handle O=C(Cn1c(=O)sc2ccc(Cl)cc21)N1CCN(CCO)CC1 [tiaramide] next?
Response line: 94.9

Prompt line: Can you handle c1cc(CN2CCCNCCNCCCNCC2)ccc1CN1CCCNCCNCCCNCC1 [plerixafor] next?
Response line: 92.9

Prompt line: Can you handle CC(=O)c1ccc2c(c1)[C@@H]1C=CC[C@@H]1[C@H](c1cc3c(cc1Br)OCO3)N2 [G-1] next?
Response line: 95.4

Prompt line: Can you handle N=C(N)Nc1ccc(C(=O)Oc2ccc3cc(C(=N)N)ccc3c2)cc1 [nafamostat] next?
Response line: 96.5

Prompt line: Can you handle CC(=O)OCC(=O)[C@H]1CC[C@H]2[C@@H]3CC[C@H]4C[C@H](O)CC[C@]4(C)[C@H]3C(=O)C[C@]12C [alfadolone-acetate] next?
Response line: 98.7

Prompt line: Can you handle C/C(=C\c1csc(C)n1)[C@@H]1C[C@@H]2O[C@]2(C)CCC[C@H](C)[C@H](O)[C@@H](C)C(=O)C(C)(C)[C@@H](O)CC(=O)O1 [epothilone-B] next?
Response line: 52.3

* * *

# System: Caco-2
# protocol_details: drug sensitivity score (DSS) for viability; higher = more toxic; extreme values may be limits of the assay
# settings: 72 h
reported_endpoint: drug sensitivity score
Respond using a number only.

Prompt line: Look up drug sensitivity score: Cc1cc(O)cc2c1O[C@](C)(CCC[C@H](C)CCC[C@H](C)CCCC(C)C)CC2 [D-delta-tocopherol]
Response line: 0

Prompt line: Can you handle O=C(N[C@@H]1CC[C@@H](c2cccc(F)c2F)CN(CC(F)(F)F)C1=O)N1CCC(n2c(=O)[nH]c3ncccc32)CC1 [telcagepant] next?
Response line: 0.6

Prompt line: Can you handle C#C[C@]1(OC(C)=O)CC[C@H]2[C@@H]3CCC4=CC(=NO)CC[C@@H]4[C@H]3CC[C@@]21CC (mixture of isomers) [norgestimate] next?
Response line: 0

Prompt line: Can you handle "c1ccc(-c2n[nH]c3c2oc2ccccc23)cc1" next?
Response line: 0

Prompt line: Can you handle "COc1cc(Nc2nc3ccccc3nc2NS(=O)(=O)c2ccc(NC(=O)c3ccc(C)c(OC)c3)cc2)cc(OC)c1" next?
Response line: 0

Prompt line: Can you handle COc1cccc(OC)c1-c1cc(C(=O)N[C@@H](CC(C)C)C(=O)O)nn1-c1ccnc2cc(Cl)ccc12 [TC-NTR1-17] next?
Response line: 0

Prompt line: Can you handle O=C(O)CNC(=O)C(CS)Cc1ccccc1 (stereo unspecified) [thiorphan] next?
Response line: 0

Prompt line: Can you handle CN1CCN(CCCN2c3ccccc3Sc3ccc(C(F)(F)F)cc32)CC1 [trifluoperazine] next?
Response line: 4.6

Prompt line: Can you handle NC(=O)c1ncn([C@@H]2O[C@H](CO)[C@@H](O)[C@H]2O)c1O [mizoribine] next?
Response line: 0

Prompt line: Can you handle "COc1cccc(CN(C(=O)CC(C)(C)C)[C@H]2C[C@@H](C(=O)N3CCNCC3)N(Cc3ccc4c(c3)OCO4)C2)c1" next?
Response line: 0

Prompt line: Can you handle CCOC(=O)Nc1nc2ccccc2[nH]1 [lobendazole] next?
Response line: 0

Prompt line: Can you handle COCCCC/C(=N\OCCN)c1ccc(C(F)(F)F)cc1 [fluvoxamine] next?
Response line: 4

Prompt line: Can you handle CC(=O)N[C@@H](Cc1c[nH]c2ccccc12)C(=O)OCc1cc(C(F)(F)F)cc(C(F)(F)F)c1 [L-732,138] next?
Response line: 0

Prompt line: Can you handle Oc1cc(O)c2c(c1)O[C@H](c1ccc(O)c(O)c1)[C@@H](O)C2 [cianidanol] next?
Response line: 0

Prompt line: Can you handle "CN(C)CCCn1cc(C2=C(c3c[nH]c4ccccc34)C(=O)NC2=O)c2ccccc21" next?
Response line: 0

Prompt line: Can you handle C[C@@H](O[C@H]1OCCN(Cc2nn(P(=O)(O)O)c(=O)[nH]2)[C@H]1c1ccc(F)cc1)c1cc(C(F)(F)F)cc(C(F)(F)F)c1 [fosaprepitant-dimeglumine] next?
Response line: 0
